Values compiled from ChEMBL document CHEMBL4689842.

Assign Population Apoptotic (%) to each entry below.
# System: HEK-293T
# EXPERIMENTAL_PROTOCOL: Multiplex assay against HEK293T
# Type: toxicity, cell-based
# CONDITION_LABEL: human, 24 h, 10 µM, compound concentration 10 uM, replicate 2
Your answer should be a plain number; it is taken to be in %.

The value of Population Apoptotic (%) measured for the compound COc1cc(-n2cnc3cc(-c4ccc(Cl)cc4)sc3c2=O)ccc1OCCN1CCCC1 turned out to be 90

The value of Population Apoptotic (%) measured for the compound C=CC(=O)Nc1cc2c(Nc3ccc(F)c(Cl)c3)ncnc2cc1OCCCN1CCOCC1.Cl.Cl [CANERTINIB DIHYDROCHLORIDE] turned out to be 10

The value of Population Apoptotic (%) measured for the compound CNc1nc(NCc2ccc(NS(C)(=O)=O)cc2Cl)cc(-c2ccccn2)n1 turned out to be 34

The value of Population Apoptotic (%) measured for the compound Cc1[nH]c(/C=C2\C(=O)Nc3ccc(S(=O)(=O)N(C)c4cccc(Cl)c4)cc32)c(C)c1C(=O)N1CCN(C)CC1 turned out to be 83

The value of Population Apoptotic (%) measured for the compound CC(C)NCC(O)COc1ccc(CCOCC2CC2)cc1.Cl (stereo not given) [BETAXOLOL HYDROCHLORIDE] turned out to be 47

====

# System: U2OS
# EXPERIMENTAL_PROTOCOL: Multiplex assay against U2OS
# Type: toxicity, cell-based
# CONDITION_LABEL: human, 12 h, 1 µM, compound concentration 1 uM, replicate 1
// 0 (no) strictly below 50% in Population Apoptotic (%); 1 (yes) otherwise

**Query** In plain terms: is recorded Population Apoptotic (%) at least 50% for OC1(c2ccc(Cl)cc2)CCN(Cc2c[nH]c3ccccc23)CC1 ?
**Result** 1 (yes)

**Query** In plain terms: is recorded Population Apoptotic (%) at least 50% for CN(C)C(=O)/C(C#N)=C/c1ccc(-c2nc3cnc4[nH]ccc4c3n2C2CCCCC2)o1 ?
**Result** 1 (yes)

**Query** In plain terms: is recorded Population Apoptotic (%) at least 50% for Cc1nc(-c2cn3c(n2)-c2ccc(-c4cnn(C(C)(C)C(N)=O)c4)cc2OCC3)n(C(C)C)n1 [TASELISIB] ?
**Result** 1 (yes)

**Query** In plain terms: is recorded Population Apoptotic (%) at least 50% for COc1ncc(-c2ccc3nccc(-c4ccnnc4)c3c2)cc1NS(=O)(=O)c1ccc(F)cc1F [OMIPALISIB] ?
**Result** 1 (yes)

**Query** In plain terms: is recorded Population Apoptotic (%) at least 50% for C=CC(=O)Nc1cc2c(Nc3ccc(F)c(Cl)c3)ncnc2cc1OCCCN1CCOCC1.Cl.Cl [CANERTINIB DIHYDROCHLORIDE] ?
**Result** 1 (yes)

**Query** In plain terms: is recorded Population Apoptotic (%) at least 50% for C=CC(=O)Nc1cccc(C(=O)Nc2ccc(Nc3cc(-c4[nH]c(SC)nc4C)ccn3)cc2)c1 ?
**Result** 1 (yes)

**Query** In plain terms: is recorded Population Apoptotic (%) at least 50% for CN(C)C(=O)N[C@H]1CC[C@H](CCN2CCN(c3cccc(Cl)c3Cl)CC2)CC1.Cl [CARIPRAZINE HYDROCHLORIDE] ?
**Result** 0 (no)

**Query** In plain terms: is recorded Population Apoptotic (%) at least 50% for Cl.N#Cc1ccc2[nH]cc(CCCCN3CCN(c4ccc5oc(C(N)=O)cc5c4)CC3)c2c1 [VILAZODONE HYDROCHLORIDE] ?
**Result** 0 (no)

**Query** In plain terms: is recorded Population Apoptotic (%) at least 50% for Cc1cc(C)cc(-c2cnc3cc(Cl)c(-c4cccc(O)c4)cc3c2OCCCN)c1 ?
**Result** 0 (no)

**Query** In plain terms: is recorded Population Apoptotic (%) at least 50% for Cc1nc(Nc2n[nH]c3c2CN(C(=O)N[C@H](CN(C)C)c2ccccc2)C3(C)C)c2sccc2n1 [PF-03758309] ?
**Result** 0 (no)

**Query** In plain terms: is recorded Population Apoptotic (%) at least 50% for CNc1nc(NCc2ccc(NS(C)(=O)=O)cc2Cl)cc(-c2ccccn2)n1 ?
**Result** 0 (no)

**Query** In plain terms: is recorded Population Apoptotic (%) at least 50% for CN1CCN(c2ccc(OC(F)(F)F)c(Nc3ncc4c(n3)-c3c(c(C(N)=O)nn3CCO)CC4)c2)CC1 [ONVANSERTIB] ?
**Result** 0 (no)

**Query** In plain terms: is recorded Population Apoptotic (%) at least 50% for Cc1c(-c2ccc(O)cc2)n(Cc2ccc(OCCN3CCCCCC3)cc2)c2ccc(O)cc12 [BAZEDOXIFENE] ?
**Result** 1 (yes)

**Query** In plain terms: is recorded Population Apoptotic (%) at least 50% for CN1CCN(CCOc2cc(OC3CCOCC3)c3c(Nc4c(Cl)ccc5c4OCO5)ncnc3c2)CC1 [SARACATINIB] ?
**Result** 0 (no)

**Query** In plain terms: is recorded Population Apoptotic (%) at least 50% for Cn1cc(-c2[nH]c3cc(NC(=O)[C@H](N)C4CCCCC4)cc4c3c2C=NNC4=O)cn1 ?
**Result** 0 (no)

====

# Test system: Fibroblast
# EXPERIMENTAL_PROTOCOL: Multiplex assay against human fibroblast
# Type: toxicity, cell-based
# CONDITION_LABEL: 24 h, 10 µM, compound concentration 10 uM, replicate 1
Assign Population Fragmented Nuclei (%) to each entry below.
Your answer should be a plain number; it is taken to be in %.

I looked up COc1cc(-n2cnc3cc(-c4ccc(Cl)cc4)sc3c2=O)ccc1OCCN1CCCC1 and its Population Fragmented Nuclei (%) for Fibroblast was 32

I looked up Cc1nc(Nc2n[nH]c3c2CN(C(=O)N[C@H](CN(C)C)c2ccccc2)C3(C)C)c2sccc2n1 [PF-03758309] and its Population Fragmented Nuclei (%) for Fibroblast was 30

I looked up Cc1c(-c2ccc(O)cc2)n(Cc2ccc(OCCN3CCCCCC3)cc2)c2ccc(O)cc12 [BAZEDOXIFENE] and its Population Fragmented Nuclei (%) for Fibroblast was 20

I looked up C=CC(=O)Nc1cc2c(Nc3ccc(F)c(Cl)c3)ncnc2cc1OCCCN1CCOCC1.Cl.Cl [CANERTINIB DIHYDROCHLORIDE] and its Population Fragmented Nuclei (%) for Fibroblast was 36

====

Assign Population Hoechst High Intensity Objects (%) to each entry below.
# Tested on: HEK-293T
# EXPERIMENTAL_PROTOCOL: Multiplex assay against HEK293T
# Format: toxicity, cell-based
# CONDITION_LABEL: human, 24 h, 10 µM, compound concentration 10 uM, replicate 2
Put your answer as a value accompanied by its unit after it.

The value of Population Hoechst High Intensity Objects (%) measured for the compound CN(C)C(=O)N[C@H]1CC[C@H](CCN2CCN(c3cccc(Cl)c3Cl)CC2)CC1.Cl [CARIPRAZINE HYDROCHLORIDE] turned out to be 7%

The value of Population Hoechst High Intensity Objects (%) measured for the compound C=CC(=O)Nc1cc2c(Nc3ccc(F)c(Cl)c3)ncnc2cc1OCCCN1CCOCC1.Cl.Cl [CANERTINIB DIHYDROCHLORIDE] turned out to be 2%

The value of Population Hoechst High Intensity Objects (%) measured for the compound CC(C)(O)CNc1ncc(-c2ccnc(Nc3ccnc(Cl)c3)n2)c(CC2CC2)n1 turned out to be 16%

The value of Population Hoechst High Intensity Objects (%) measured for the compound CN1CCN(CCOc2cc(OC3CCOCC3)c3c(Nc4c(Cl)ccc5c4OCO5)ncnc3c2)CC1 [SARACATINIB] turned out to be 5%

The value of Population Hoechst High Intensity Objects (%) measured for the compound COc1cccc([C@@H](C)NCCCc2ccccc2Cl)c1.Cl [TECALCET HYDROCHLORIDE] turned out to be 5%

====

# System: U2OS
# EXPERIMENTAL_PROTOCOL: Multiplex assay against U2OS
# Format: toxicity, cell-based
# CONDITION_LABEL: human, 24 h, 10 µM, compound concentration 10 uM, replicate 1
QUANTITY_KIND: Population Mitochondria Different-Phenotype (%)
Your answer should be a plain number; it is taken to be in %.

The value of Population Mitochondria Different-Phenotype (%) measured for the compound Cc1nc(-c2cn3c(n2)-c2ccc(-c4cnn(C(C)(C)C(N)=O)c4)cc2OCC3)n(C(C)C)n1 turned out to be 11

The value of Population Mitochondria Different-Phenotype (%) measured for the compound Cl.N#Cc1ccc2[nH]cc(CCCCN3CCN(c4ccc5oc(C(N)=O)cc5c4)CC3)c2c1 [VILAZODONE HYDROCHLORIDE] turned out to be 86

The value of Population Mitochondria Different-Phenotype (%) measured for the compound COc1cc(-n2cnc3cc(-c4ccc(Cl)cc4)sc3c2=O)ccc1OCCN1CCCC1 turned out to be 100

The value of Population Mitochondria Different-Phenotype (%) measured for the compound CN(C)CC#Cc1ccc(OCCCc2sc(N3CCc4cccc(C(=O)Nc5nc6ccccc6s5)c4C3)nc2C(=O)O)c(F)c1 turned out to be 23

The value of Population Mitochondria Different-Phenotype (%) measured for the compound CN1CCN(c2ccc(OC(F)(F)F)c(Nc3ncc4c(n3)-c3c(c(C(N)=O)nn3CCO)CC4)c2)CC1 turned out to be 77

The value of Population Mitochondria Different-Phenotype (%) measured for the compound CN1CCN(CCOc2cc(OC3CCOCC3)c3c(Nc4c(Cl)ccc5c4OCO5)ncnc3c2)CC1 turned out to be 97

The value of Population Mitochondria Different-Phenotype (%) measured for the compound CC(C)NCC(O)COc1ccc(CCOCC2CC2)cc1.Cl (stereo not drawn) [BETAXOLOL HYDROCHLORIDE] turned out to be 59

The value of Population Mitochondria Different-Phenotype (%) measured for the compound CN(C)C(=O)N[C@H]1CC[C@H](CCN2CCN(c3cccc(Cl)c3Cl)CC2)CC1.Cl [CARIPRAZINE HYDROCHLORIDE] turned out to be 97

The value of Population Mitochondria Different-Phenotype (%) measured for the compound C[C@@H](NCCCc1cccc(C(F)(F)F)c1)c1cccc2ccccc12.Cl [CINACALCET HYDROCHLORIDE] turned out to be 97

The value of Population Mitochondria Different-Phenotype (%) measured for the compound COc1cccc([C@@H](C)NCCCc2ccccc2Cl)c1.Cl [TECALCET HYDROCHLORIDE] turned out to be 81

The value of Population Mitochondria Different-Phenotype (%) measured for the compound COc1cc2nccc(Oc3ccc(NC(=O)Nc4cc(C)on4)c(Cl)c3)c2cc1OC.O turned out to be 98

The value of Population Mitochondria Different-Phenotype (%) measured for the compound c1cn2cc(-c3ccc4cn[nH]c4c3)nc(Nc3ccc(N4CCOCC4)cc3)c2n1 turned out to be 49

The value of Population Mitochondria Different-Phenotype (%) measured for the compound Cc1csc2c(N[C@@H](C)CN3CCN(S(=O)(=O)c4ccc(Cl)c(Cl)c4)CC3)ncnc12 turned out to be 100

The value of Population Mitochondria Different-Phenotype (%) measured for the compound COc1ncc(-c2ccc3nccc(-c4ccnnc4)c3c2)cc1NS(=O)(=O)c1ccc(F)cc1F turned out to be 25

The value of Population Mitochondria Different-Phenotype (%) measured for the compound C=CC(=O)Nc1cc2c(Nc3ccc(F)c(Cl)c3)ncnc2cc1OCCCN1CCOCC1.Cl.Cl [CANERTINIB DIHYDROCHLORIDE] turned out to be 11

The value of Population Mitochondria Different-Phenotype (%) measured for the compound Cc1nc(Nc2n[nH]c3c2CN(C(=O)N[C@H](CN(C)C)c2ccccc2)C3(C)C)c2sccc2n1 turned out to be 64

The value of Population Mitochondria Different-Phenotype (%) measured for the compound CN1CCCC(n2nc(Cc3ccc(Cl)cc3)c3ccccc3c2=O)CC1.Cl (stereo not drawn) [AZELASTINE HYDROCHLORIDE] turned out to be 97

The value of Population Mitochondria Different-Phenotype (%) measured for the compound O=C1NCN(c2ccccc2)C12CCN(CCCOc1ccc(F)cc1)CC2 [SPIRAMIDE] turned out to be 71

The value of Population Mitochondria Different-Phenotype (%) measured for the compound Cc1c(-c2ccc(O)cc2)n(Cc2ccc(OCCN3CCCCCC3)cc2)c2ccc(O)cc12 turned out to be 100

The value of Population Mitochondria Different-Phenotype (%) measured for the compound OC1(c2ccc(Cl)cc2)CCN(Cc2c[nH]c3ccccc23)CC1 turned out to be 79

The value of Population Mitochondria Different-Phenotype (%) measured for the compound Cc1[nH]c(/C=C2\C(=O)Nc3ccc(S(=O)(=O)N(C)c4cccc(Cl)c4)cc32)c(C)c1C(=O)N1CCN(C)CC1 turned out to be 88

The value of Population Mitochondria Different-Phenotype (%) measured for the compound C=CC(=O)Nc1cccc(C(=O)Nc2ccc(Nc3cc(-c4[nH]c(SC)nc4C)ccn3)cc2)c1 turned out to be 6

The value of Population Mitochondria Different-Phenotype (%) measured for the compound Cc1nc(-c2ccc(-c3ccc(C(=O)N4CCc5cc6c(cc54)C4(CCN(C)CC4)CO6)cc3)c(C)c2)no1 turned out to be 98
